Provide the reported IC50 of each item.
target_or_test_system: B-Raf kinase (SEQ ID NO: 1) (Homo sapiens, UniProt P15056)
Construct: GST (N); purchased Sigma
Sequence (P15056 416-766): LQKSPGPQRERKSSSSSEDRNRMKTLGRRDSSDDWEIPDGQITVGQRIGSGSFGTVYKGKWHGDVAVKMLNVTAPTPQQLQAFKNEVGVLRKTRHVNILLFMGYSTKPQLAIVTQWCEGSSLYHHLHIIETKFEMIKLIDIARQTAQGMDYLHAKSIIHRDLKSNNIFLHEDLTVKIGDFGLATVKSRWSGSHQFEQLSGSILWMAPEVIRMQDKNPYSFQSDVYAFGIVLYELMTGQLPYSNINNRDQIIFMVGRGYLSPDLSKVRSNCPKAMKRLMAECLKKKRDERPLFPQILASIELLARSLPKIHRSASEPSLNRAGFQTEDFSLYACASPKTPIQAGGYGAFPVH
assay_procedure: Biochemical Assay for B-Raf (coupled pyruvate kinase/lactate dehydrogenase assay)
cond: 1 mM ATP; read-out: BRAF (inhibition of biochemical activity, IC50)

Guide cases for IC50, answers given:
molecule="Cc1ccc(NC(=O)c2cc(C(F)(F)F)cnn2)cc1-c1ccnc(-c2ccnc(/N=C/N(C)C)c2)c1 [Example 37]" target_or_test_system="B-Raf kinase (SEQ ID NO: 1) (Homo sapiens, UniProt P15056)" measured_value="< 100 nM"
molecule="Cc1ccc(NC(=N)c2cc(C(F)(F)F)cnn2)cc1-c1ccnc(-c2ccnc(NC(=O)C3CC3)c2)c1 [Example 86]" target_or_test_system="B-Raf kinase (SEQ ID NO: 1) (Homo sapiens, UniProt P15056)" measured_value="100 to 500 nM"
molecule="Cc1ccc(NC(=O)c2cc(C(C)(F)F)cnn2)cc1-c1cc(NCCO)nc(-c2ccnc(NC(=O)C3CC3)c2)c1 [Example 101]" target_or_test_system="B-Raf kinase (SEQ ID NO: 1) (Homo sapiens, UniProt P15056)" measured_value="< 100 nM"
molecule="CC(=O)Nc1cc(-c2cc(-c3cc(NC(=O)c4ccc(C(F)(F)F)nc4)ccc3C)cn(CCO)c2=O)ccn1 [Example 29]" target_or_test_system="B-Raf kinase (SEQ ID NO: 1) (Homo sapiens, UniProt P15056)" measured_value="1000 to 10000 nM"

Value sought for every listed molecule: IC50.
1. COC(=O)Nc1cc(-c2cncc(-c3cc(NC(=O)c4ccc(C(F)(F)F)nc4)c(F)cc3C)c2)ccn1 [Example 3]
2. CC(=O)Nc1cc(-c2cncc(-c3cc(NC(=O)c4ccc(C(F)F)nc4)ccc3C)n2)ccn1 [Example 26]
3. Cc1ccc(NC(=O)c2cc(C3CC3)cnn2)cc1-c1ccnc(-c2cnn(C)n2)c1 [Example 141]

# output
1: 100 to 500 nM; 2: 100 to 500 nM; 3: 100 to 500 nM

###

I'd be grateful if you could share measured IC50 for these entries.
target_or_test_system: C-Raf kinase (SEQ ID NO: 2) (Homo sapiens, UniProt P04049, Y340D/Y341D)
Construct: C-Raf residues 306-end; Y340D, Y341D with; GST (N); purchased Sigma
Sequence (P04049 307-648 Y340D/Y341D): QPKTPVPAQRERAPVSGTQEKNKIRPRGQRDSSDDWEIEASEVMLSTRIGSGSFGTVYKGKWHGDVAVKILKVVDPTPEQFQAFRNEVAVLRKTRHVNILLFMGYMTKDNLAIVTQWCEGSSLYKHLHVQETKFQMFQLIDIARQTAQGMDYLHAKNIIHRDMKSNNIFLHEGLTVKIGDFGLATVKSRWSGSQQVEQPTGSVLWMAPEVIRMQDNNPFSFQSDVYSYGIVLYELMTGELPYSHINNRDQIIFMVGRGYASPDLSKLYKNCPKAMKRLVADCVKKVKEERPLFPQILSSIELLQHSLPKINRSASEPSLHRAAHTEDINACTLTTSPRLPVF
assay_procedure: Biochemical Assay for C-Raf (coupled pyruvate kinase/lactate dehydrogenase assay)
cond: 1 mM ATP; read-out: CRAF (inhibition of biochemical activity, IC50)

// below: answered compounds
compound="CONc1cc(-c2cc(-c3cc(NC(=O)c4cc(C(F)(F)F)cnn4)ccc3C)ccn2)ccn1 [Example 128]" assay_readout=IC50 measured_value="100 to 500 nM"
compound="Cc1ccc(NC(=O)c2cnc(C(F)(F)F)nc2)cc1-c1ccnc(-c2ccnc(NC(=O)C3CC3)c2)c1 [Example 17]" assay_readout=IC50 measured_value="< 100 nM"
compound="Cc1ccc(NC(=O)c2cc(C3CC3)cnn2)cc1-c1cc(NCCO)nc(-c2ccnc(NC(=O)C3CC3)c2)n1 [Example 103]" assay_readout=IC50 measured_value="< 100 nM"
compound="Cc1ccc(NC(=O)c2cc(C(F)(F)F)cnn2)cc1-c1ccnc(-c2ccnc(/N=C/N(C)C)c2)c1 [Example 37]" assay_readout=IC50 measured_value="< 100 nM"
compound="Cc1ccc(NC(=O)c2cc(C3CC3)cnn2)cc1-c1cc(-c2ccnc(NC(=O)C3CC3)c2)nc(NCCO)n1 [Example 15]" assay_readout=IC50 measured_value="< 100 nM"

Give one value of IC50 per listed compound.
1. Cc1ccc(NC(=O)c2cc(C(F)(F)F)cnn2)cc1-c1cncc(-c2cc(NC=O)ncn2)c1 [Example 124]
2. Cc1ccc(NC(=O)c2cc(C(F)(F)F)cnn2)cc1-c1ccnc(-c2ccnc(NC(=O)C3CCN(C)C3)c2)c1 (stereo not drawn) [Example 51]
3. Cc1ccc(NC(=O)c2cc(P(C)(C)=O)cnn2)cc1-c1ccnc(-c2ccnc(NC(=O)C3CC3)c2)c1 [Example 111]
4. CC(=O)Nc1cc(-c2nccc(-c3cc(NC(=O)c4ccc(C(F)F)nc4)ccc3C)n2)ccn1 [Example 14]

# output
["< 100 nM", "< 100 nM", "< 100 nM", "< 100 nM"]

###

Test system: MiaPaca-2 cells
assay_procedure: MiaPaca-2 Cell Proliferation Assay
Type: cell-based
cond: Homo sapiens, MIA PaCa-2, MiaPaca-2 cells; Table 2; read-out: Inhibition of cell proliferation in MiaPaca-2 (IC50 class)
pIC50: −log10 of the molar value.
assay_readout: pIC50

Examples from the recorded data:
compound="Cc1ccc(NC(=O)c2cncc(C(F)(F)F)n2)cc1-c1cncc(-c2ccnc(NC(=O)C3CC3)c2)c1 [Example 5]" target_or_test_system="MiaPaca-2 cells" assay_readout=pIC50 measured_value="5.00 to 6.00"
compound="Cc1ccc(NC(=O)c2cnc(C(F)(F)F)nc2)cc1-c1cc(N[C@H](C)CO)nc(-c2cn[nH]c2)c1 [Example 133]" target_or_test_system="MiaPaca-2 cells" assay_readout=pIC50 measured_value="6.30 to 7.00"
compound="Cc1cnc(NC(=O)c2cc(C(F)(F)F)cnn2)cc1-c1ccnc(-c2ccnc(NC(=O)C3CC3)c2)c1 [Example 36]" target_or_test_system="MiaPaca-2 cells" assay_readout=pIC50 measured_value="5.00 to 6.00"

Take each entry in turn and give its pIC50.
1. Cc1ccc(NC(=O)c2cc(C#N)cnn2)cc1-c1ccnc(-c2ccnc(NC(=O)C3CC3)c2)c1 [Example 96]
2. CC(=O)Nc1cc(-c2cc(-c3cc(NC(=O)c4ccc(C(F)(F)F)nc4)ccc3C)cn(CCO)c2=O)ccn1 [Example 29]
3. Cc1ccc(NC(=O)c2cc(C(C)(C)F)cnn2)cc1-c1cncc(-c2cc(NC(=O)C3CC3)ncn2)c1 [Example 62]
4. CC(=O)Nc1cc(-c2cncc(-c3cc(NC(=O)c4ccc(C(F)F)nc4)ccc3C)n2)ccn1 [Example 26]
5. Cc1ccc(NC(=O)c2ccc(C(F)F)nn2)cc1-c1ccnc(-c2ccnc(NC(=O)C3CC3)c2)c1 [Example 58]

# output
1. > 7.00
2. 5.00 to 6.00
3. 6.30 to 7.00
4. 6.30 to 7.00
5. 6.30 to 7.00

###

target_or_test_system: B-Raf kinase (SEQ ID NO: 1) (Homo sapiens)
Construct: GST (N); purchased Sigma
assay_procedure: Biochemical Assay for B-Raf (coupled pyruvate kinase/lactate dehydrogenase assay)
cond: Table 4, representative compounds from PCT/US2022/081242; read-out: BRAF IC50
pIC50: −log10 of the molar value.
assay_readout: pIC50

Here are 2 compounds together with their reported answers.
compound="Cc1ccc(NC(=O)c2ccnc(C(C)C)c2)cc1-c1ccnc(-c2ccnc(NC(=O)C3CC3)c2)c1 [reference compound]" measured_value="> 7.00"
compound="Cc1ccc(NC(=O)c2ccnc(C(C)(C)F)c2)cc1-c1ccnc(-c2ccnc(NC(=O)C3CC3)c2)c1 [reference compound]" measured_value="> 7.00"

# input Quick check: pIC50 of Cc1ccc(NC(=O)c2ccnc(C3CC3)c2)cc1-c1ccnc(-c2ccnc(NC(=O)C3CC3)c2)c1 [reference compound] ?
# output > 7.00

###

Tested on: HPAF-II cells
assay_procedure: HPAF-II Cell Proliferation Assay
Format: cell-based
cond: Homo sapiens, HPAF-II, HPAF-II cells; Table 2; read-out: Inhibition of cell proliferation in HPAF-II (IC50 class)
Record form. Attribute: IC50. Fill in for each entry.

Consider the following illustrative entries.
substance_smiles=Cc1ccc(NC(=O)c2cc(C(C)(F)F)cnn2)cc1-c1ccnc(-c2cnn(C)n2)c1 measured_value="500 to 1000 nM"
substance_smiles=Cc1ccc(NC(=O)c2cc(C#N)cnn2)cc1-c1cc(N[C@H](C)CO)nc(-c2cn[nH]c2)c1 measured_value="500 to 1000 nM"
substance_smiles=COC(=O)Nc1cc(-c2ccnc(-c3cc(NC(=O)c4ccc(C(F)(F)F)nc4)ccc3C)n2)ccn1 measured_value="1000 to 10000 nM"
substance_smiles=Cc1ccc(NC(=O)c2cc(C(F)(F)F)cnn2)cc1-c1cc(N[C@H](C)CO)cc(-c2cc(NC(=O)C3CC3)ncn2)c1 measured_value="100 to 500 nM"
substance_smiles=CC(=N)Nc1cc(-c2cc(-c3cc(NC(=O)c4cc(C(F)(F)F)cnn4)ccc3C)ccn2)ccn1 measured_value="1000 to 10000 nM"
substance_smiles=Cc1ccc(NC(=O)c2cc(C(C)(F)F)cnn2)cc1-c1ccnc(-c2cnn(C)c2)c1 measured_value="100 to 500 nM"
substance_smiles=Cc1ccc(NC(=O)c2cc(C3CC3)cnn2)cc1-c1cc(-c2ccnc(NC(=O)C3CC3)c2)nc(NCCO)n1 measured_value="1000 to 10000 nM"
substance_smiles=Cc1ccc(NC(=O)c2ccc(C(F)F)nc2)cc1-c1ccnc(-c2ccnc(NC(=O)C3CC3)c2)n1 measured_value="100 to 500 nM"

Each compound below has a recorded value; state its IC50.
1. Cc1ccc(NC(=O)c2cc(C(F)(F)F)cnn2)cc1-c1ccnc(-c2cnn(C)n2)c1
2. Cc1ccc(NC(=O)c2cc(C(C)C)cnn2)cc1-c1cncc(-c2ccnc(NC(=O)C3CC3)c2)c1
3. Cc1ccc(NC(=O)c2cc(C(F)(F)F)cnn2)cc1-c1cncc(-c2cc(NC=O)ncn2)c1
4. Cc1ccc(NC(=O)c2cc(C3CC3)cnn2)cc1-c1cc(NCCO)nc(-c2ccnc(NC(=O)C3CC3)c2)n1
5. Cc1ccc(NC(=O)c2cc(Br)cnn2)cc1-c1ccnc(-c2ccnc(NC(=O)C3CC3)c2)c1

# output
1: 100 to 500 nM; 2: 100 to 500 nM; 3: 500 to 1000 nM; 4: 500 to 1000 nM; 5: 1000 to 10000 nM

Could I get IC50 for every one of these entries?
1. Cc1ccc(NC(=O)c2cc(C(C)(C)F)cnn2)cc1-c1cncc(-c2cc(NC(=O)C3CC3)ncn2)c1
2. Cc1ccc(NC(=O)c2cncc(C(C)(F)F)c2)cc1-c1cncc(-c2cc(NC(=O)C3CC3)ncn2)c1

# output
["< 100 nM", "100 to 500 nM"]
